System: HeLa
run-description: Cytotoxicity against human HeLa cells after 48 hrs by MTT assay
Type: functional, cell-based
Assignment: determine reported IC50 for the given molecules.
Record the result as number plus unit.

query: Which IC50 reading was recorded for the molecule C=C(C)[C@@H]1CC[C@]2(C(=O)O)CC[C@]3(C)[C@H](CC[C@@H]4[C@@]5(C)C[C@H](O)C(C)(C)[C@@H]5CC[C@]43C)[C@@H]12 ?
result: 9.1 µg/mL

Batch of 2 molecules: report IC50 for each.
1. C=C(C)[C@@H]1CC[C@]2(C(=O)O)CC[C@]3(C)[C@H](CC[C@@H]4[C@@]5(C)C=CC(C)(C)[C@@H]5CC[C@]43C)[C@@H]12
2. C=C(C)[C@@H]1CC[C@]2(C(=O)O)CC[C@]3(C)[C@H](CC[C@@H]4[C@@]5(C)CC[C@H](O)C(C)(C)[C@@H]5CC[C@]43C)[C@@H]12

result:
7.1 µg/mL
0.8 µg/mL

query: Which IC50 reading was recorded for the molecule C=C(C)[C@@H]1CC[C@]2(C(=O)O)CC[C@]3(C)[C@H](CC[C@@H]4[C@@]5(C)CC(=O)C(C)(C)[C@@H]5CC[C@]43C)[C@@H]12 ?
result: 6.6 µg/mL
